- testedOn: human CYP51A1 (lanosterol 14α-demethylase) (Homo sapiens)
- Sequence (Q16850 whole entry): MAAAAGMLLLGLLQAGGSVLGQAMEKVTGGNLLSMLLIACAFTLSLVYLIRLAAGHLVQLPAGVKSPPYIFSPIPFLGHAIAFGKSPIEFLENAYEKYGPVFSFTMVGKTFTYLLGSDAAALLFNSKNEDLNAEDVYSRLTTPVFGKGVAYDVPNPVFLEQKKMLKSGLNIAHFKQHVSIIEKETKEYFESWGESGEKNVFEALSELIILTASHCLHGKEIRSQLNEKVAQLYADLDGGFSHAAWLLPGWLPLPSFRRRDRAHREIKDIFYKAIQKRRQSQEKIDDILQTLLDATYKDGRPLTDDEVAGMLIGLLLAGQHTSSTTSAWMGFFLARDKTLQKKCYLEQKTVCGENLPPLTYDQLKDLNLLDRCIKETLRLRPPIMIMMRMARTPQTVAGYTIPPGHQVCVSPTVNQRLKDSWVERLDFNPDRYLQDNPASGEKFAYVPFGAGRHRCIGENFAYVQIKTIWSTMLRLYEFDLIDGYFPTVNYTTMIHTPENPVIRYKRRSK
pIC50: −log10 of the molar value.
measurementName: pIC50

Look up pIC50 for this molecule: O=c1cc(-c2ccc(O)c(OS(=O)(=O)O)c2)oc2cc(OS(=O)(=O)O)cc(O)c12 [luteolin 7,3′-disulfate]
< 4.60

###

- testedOn: human CYP51A1 (Homo sapiens)
- Construct: made in house
- experimentNotes: Surface plasmon resonance binding to immobilized CYP51A1
- experimentalSetup: SPR, 25 °C, immobilized CYP51A1; read-out: Kd (equilibrium dissociation constant)
measurementName: Kd (µM)
Your answer should be a plain number; it is taken to be in µM.

- CC(C)=CCC[C@@H](C)[C@H]1CC[C@@]2(C)C3=C(CC[C@]12C)[C@@]1(C)CC[C@H](O)C(C)(C)[C@@H]1CC3 [lanosterol]: 2.4
- O=c1cc(-c2ccccc2)oc2cc(O)c(O)c(O)c12 [baicalein]: 12.5
- O=c1cc(-c2ccc(O)c(O)c2)oc2cc(O)cc(O)c12 [luteolin]: 20

Kindly consider the entry below.
Look up Kd for this compound: O=c1cc(-c2ccc(O)c(OS(=O)(=O)O)c2)oc2cc(OS(=O)(=O)O)cc(O)c12 [luteolin 7,3′-disulfate]
2.9

###

- testedOn: human CYP51A1 (Homo sapiens, UniProt Q16850)
- Construct: made in house
- experimentNotes: Spectrophotometric titration (difference spectra) of CYP51A1 in the presence of lanosterol
- Type: binding
- experimentalSetup: spectral titration, CYP51A1 4 μM, lanosterol 5 μM, pH 7.4, room temperature; read-out: apparent dissociation constant (Kdapp)
Let's look at some compounds and their measured pKd.
// pKd: -log10(molar conc.)

- O=c1cc(-c2ccc(O)c(O)c2)oc2cc(O)cc(O)c12 [luteolin]: 5.29

Kindly consider the entry below.
Look up pKd for this compound: O=c1cc(-c2ccccc2)oc2cc(O)c(O)c(O)c12 [baicalein]
5.09
